Data origin, for the record: ChEMBL document CHEMBL1139049

# Organism: Bos taurus
# ASSAY_DETAILS: Ratio of kinact to Ki for BPAO
ATTRIBUTE_MEASURED: log10 Ratio (log10 of the value in mM⁻¹ min⁻¹)
// do not treat as linear: log10 of Ratio, unit mM⁻¹ min⁻¹

Inquiry: # return recorded log10 Ratio for entry `C1=C(c2nccc3ccccc23)CNC1`
Reply text: 1.60

Inquiry: Annotate the compound `Fc1c(F)c(F)c(C2=CCNC2)c(F)c1F` with its measured log10 Ratio.
Reply text: 0.78

Inquiry: Return log10 Ratio for the following compound: `C1=C(c2ccc3ccccc3n2)CNC1`
Reply text: 1.11

Inquiry: Quickly give me recorded log10 Ratio for `C1=C(c2cccnc2)CNC1`
Reply text: 1.38

Inquiry: For `C1=C(c2ccncc2)CNC1` , write its log10 Ratio.
Reply text: 0.08

Inquiry: Fill in reported log10 Ratio for this entry: `C1=C(c2ccccn2)CNC1`
Reply text: 1.81
